- assayOverview: AUClast in C57BL/6 mouse at 25 mg/kg, po administered as single dose by mass spectrometry
- Format: ADME, organism-based
- Design: dose 25 mg/kg, route po
- conditionsUsed: in vivo
recordedMetric: AUC(0-t) (nM·h)
# number only, unit nM·h dropped from output

Looking up `c1ccc2c(c1)OC[C@H](N1CCOCC1)[C@H]2Nc1ncnc2[nH]c(C3CC3)cc12` , I see its AUC(0-t) listed as 1910

###

- assayOverview: Cmax in C57BL/6 mouse at 50 mg/kg, po administered as single dose by mass spectrometry
- Format: ADME, organism-based
- Set-up: dose 50 mg/kg, route po
- conditionsUsed: in vivo
Cmax listing for selected compounds.
I'd appreciate it if you wrote the number followed by its unit.

// recorded Cmax for FC(F)(F)c1cc2c(NC3CCCc4ccccc43)ncnc2[nH]1 (single isomer, unassigned) : 6.98 µM

Please find the next compound below.
Value of measured Cmax for the entry `c1ccc2c(c1)OC[C@H](N1CCOCC1)[C@H]2Nc1ncnc2[nH]c(C3CC3)cc12` : 9.21 µM

###

- assayOverview: AUClast in C57BL/6 mouse at 100 mg/kg, po administered as single dose by mass spectrometry
- Assay type: ADME, organism-based
- Parameters: dose 100 mg/kg, route po
- conditionsUsed: in vivo
recordedMetric: AUC(0-t) (µM·h)
Field: numeric (µM·h). Do not append units.

compound `c1ccc2c(c1)OC[C@H](N1CCOCC1)[C@H]2Nc1ncnc2[nH]c(C3CC3)cc12` , AUC(0-t) observed: 85.6

###

- assayOverview: Cytotoxicity against human HeLa cells expressing YFP parkin treated with FCCP/ oligomycin assessed as highest safety dose by DAPI staining analysis
- Assay type: toxicity, cell-based
- conditionsUsed: read-out: Activity
recordedMetric: log10(MNTC) (log10 of the value in nM)
Annotation: log10 of MNTC, nM basis.

Look over these answered cases.
Lookup result for C[C@@H]1CN([C@H]2COc3cc(F)ccc3[C@@H]2Nc2ncnc3[nH]c(C(F)(F)F)cc23)C[C@H](C)O1 (single isomer, unassigned) ; measured log10(MNTC): 4.00

What the record says about Fc1ccc2c(c1)CC[C@@H](N1C[C@H]3COC[C@H]3C1)[C@@H]2Nc1ncnc2[nH]c(C(F)(F)F)cc12 (single isomer, unassigned) : log10(MNTC) is 3.92

log10(MNTC) in this record for `C[C@@H]1CN([C@@H]2COc3ccccc3[C@H]2Nc2ncnc3[nH]c(C4CC4)cc23)CCO1` : 3.23

What the record says about `[2H]C([2H])([2H])OC1CN([C@H]2COc3ccccc3[C@@H]2Nc2ncnc3[nH]c(C(F)(F)F)cc23)C1` : log10(MNTC) is 4.30

Field log10(MNTC) (entry Fc1ccc2c(c1)CC[C@H](N1CCOCC1)[C@H]2Nc1ncnc2[nH]c(C3CC3)cc12 (single isomer, unassigned) ) reads 3.45

***
Measured log10(MNTC), `C[C@@H]1CN([C@@H]2COc3cc(F)ccc3[C@H]2Nc2ncnc3[nH]c(C4CC4)cc23)C[C@H](C)O1` : 3.08

Note to self: log10(MNTC) recorded for `CO[C@H]1CCN([C@H]2COc3ccccc3[C@@H]2Nc2ncnc3[nH]c(C(F)(F)F)cc23)C1` was 3.04

###

- assayOverview: Cytotoxicity against human HeLa cells expressing YFP parkin assessed as highest safety dose by DAPI staining analysis
- Format: toxicity, cell-based
- conditionsUsed: read-out: Activity
recordedMetric: MNTC (µM)
Please reply with the bare figure in µM and do not write the unit itself.

get_value(item= `COC1CN([C@H]2COc3ccccc3[C@@H]2Nc2ncnc3[nH]c(C(F)(F)F)cc23)C1` , readout=MNTC) returns 8.3

Please fill in: MNTC reported for `c1ccc2c(c1)CC[C@@H](N1C[C@H]3COC[C@@H]3C1)[C@@H]2Nc1ncnc2[nH]c(C3CC3)cc12` = 25

Entry `CO[C@@H]1CCN([C@H]2COc3ccccc3[C@@H]2Nc2ncnc3[nH]c(C4CC4)cc23)C1` ; MNTC = 25

Value of MNTC reported for the compound `C[C@@H]1CN([C@H]2COc3ccccc3[C@@H]2Nc2ncnc3[nH]c(C4CC4)cc23)CCO1` is 25

Sure, the documented MNTC for Fc1ccc2c(c1)CC[C@@H](N1CCOCC1)[C@@H]2Nc1ncnc2[nH]c(C(F)(F)F)cc12 (single isomer, unassigned) is 25

Noted for `c1ccc2c(c1)OC[C@@H](N1CCOCC1)[C@H]2Nc1ncnc2[nH]c(C3CC3)cc12` : its MNTC reads 25

Per the records, this compound ( `FC(F)(F)c1cc2c(N[C@@H]3c4ccccc4CC[C@@H]3C3CCOCC3)ncnc2[nH]1` ) has MNTC equal to 25

What the record says about Fc1ccc2c(c1)CC[C@@H](N1C[C@H]3COC[C@H]3C1)[C@@H]2Nc1ncnc2[nH]c(C(F)(F)F)cc12 (single isomer, unassigned) : MNTC is 8.3

compound C[C@@H]1CN([C@@H]2CCc3ccccc3[C@H]2Nc2ncnc3[nH]c(C(F)(F)F)cc23)C[C@H](C)O1 (single isomer, unassigned) , MNTC observed: 25

Form field MNTC, entry Fc1ccc2c(c1)CC[C@H](N1CCOCC1)[C@H]2Nc1ncnc2[nH]c(C(F)(F)F)cc12 (single isomer, unassigned) : 25

Fc1ccc2c(c1)OC[C@H](N1C[C@@H]3COC[C@H]3C1)[C@H]2Nc1ncnc2[nH]c(C(F)(F)F)cc12 (single isomer, unassigned) yielded MNTC of 25

Looking up C[C@H]1CN([C@@H]2CCc3ccccc3[C@H]2Nc2ncnc3[nH]c(C4CC4)cc23)CCO1 (single isomer, unassigned) , I found its MNTC recorded as 25

The value of MNTC measured for the compound CN1CCN([C@@H]2CCc3ccccc3[C@H]2Nc2ncnc3[nH]c(C(F)(F)F)cc23)CC1 (single isomer, unassigned) turned out to be 25

Record summary for `C[C@H]1CN([C@H]2COc3cc(F)ccc3[C@@H]2Nc2ncnc3[nH]c(C(F)(F)F)cc23)CCO1` : reported MNTC = 25

MNTC measured on C[C@@H]1CN([C@H]2CCc3ccccc3[C@@H]2Nc2ncnc3[nH]c(C4CC4)cc23)CCO1 (single isomer, unassigned) = 25

MNTC recorded for this compound, c1ccc2c(c1)OC[C@H](N1C[C@H]3COC[C@H]3C1)[C@H]2Nc1ncnc2[nH]c(C3CC3)cc12 (single isomer, unassigned) , is 25

MNTC for `C[C@H]1CN([C@H]2COc3cc(F)ccc3[C@@H]2Nc2ncnc3[nH]c(C4CC4)cc23)CCO1` is 25

The compound listed as FC(F)(F)c1cc2c(N[C@H]3c4ccccc4OC[C@@H]3C3CCOCC3)ncnc2[nH]1 (single isomer, unassigned) shows MNTC equal to 25

So for C[C@@H]1CN([C@H]2CCc3ccccc3[C@@H]2Nc2ncnc3[nH]c(C(F)(F)F)cc23)CCO1 (single isomer, unassigned) , the logged MNTC turned out to be 25

Entry `C[C@@H]1CN([C@@H]2COc3ccccc3[C@H]2Nc2ncnc3[nH]c(C4CC4)cc23)CCO1` , MNTC reported as 25

The value of MNTC measured for the compound `Fc1ccc2c(c1)CC[C@H](N1C[C@H]3COC[C@H]3C1)[C@H]2Nc1ncnc2[nH]c(C3CC3)cc12` turned out to be 25

###

Reported AUC(0-t) is given for each of the following compounds.
- assayOverview: AUClast in C57BL/6 mouse at 10 mg/kg, po administered as single dose by mass spectrometry
- Format: ADME, organism-based
- Design: dose 10 mg/kg, route po
- conditionsUsed: in vivo
Number only, in µM·h; omit the unit.

compound FC(F)(F)c1cc2c(NC3CCCc4ccccc43)ncnc2[nH]1 (single isomer, unassigned) , AUC(0-t) observed: 1.79

Further cases:
// recorded AUC(0-t) for `c1ccc2c(c1)OC[C@H](N1CCOCC1)[C@H]2Nc1ncnc2[nH]c(C3CC3)cc12` : 0.51

###

- assayOverview: Cytotoxicity against human HeLa cells expressing YFP parkin treated with FCCP/ oligomycin assessed as highest safety dose by DAPI staining analysis
- Assay type: toxicity, cell-based
- conditionsUsed: read-out: Activity
Below, each entry is listed alongside its reported log10 MNTC.
The common logarithm of MNTC in µM is what is listed.

Please review the entries below; each comes with its answer.
get_value(item= `FC(F)(F)c1cc2c(N[C@H]3c4ccccc4OC[C@@H]3N3C[C@H]4COC[C@H]4C3)ncnc2[nH]1` , readout=log10 MNTC) returns 1.40

Note to self: log10 MNTC recorded for COC[C@@H]1CCN(C2COc3ccccc3C2Nc2ncnc3[nH]c(C4CC4)cc23)C1 (single isomer, unassigned) was 0.15

Per the record, `COC[C@H]1CCN([C@H]2COc3ccccc3[C@@H]2Nc2ncnc3[nH]c(C4CC4)cc23)C1` has log10 MNTC of 0.56

Reported log10 MNTC ( `C[C@@H]1CN([C@@H]2COc3ccccc3[C@H]2Nc2ncnc3[nH]c(C(F)(F)F)cc23)C[C@H](C)O1` ) = 0.36

For record C[C@@H]1CN([C@H]2COc3cc(F)ccc3[C@@H]2Nc2ncnc3[nH]c(C4CC4)cc23)C[C@H](C)O1 (single isomer, unassigned) the listed log10 MNTC is 0.30

# log10 MNTC of FC(F)(F)c1cc2c(NC3c4ccccc4OCC3N3C[C@H]4COC[C@@H]4C3)ncnc2[nH]1 (stereo partly drawn) = 1.40

Briefly, log10 MNTC measured for `COC1CN([C@H]2COc3ccccc3[C@@H]2Nc2ncnc3[nH]c(C(F)(F)F)cc23)C1` : 0.92

# ---- query compound ----
Looking up `C[C@H]1CN([C@@H]2COc3cc(F)ccc3[C@H]2Nc2ncnc3[nH]c(C4CC4)cc23)CCO1` , I found its log10 MNTC recorded as 0.87
